protocol details: Solubility in PBS
Assay type: physicochemical
Protocol: After ultracentrifugation of the PBS solution, the supernatant was analyzed by HPLC and compared to an HPLC injection 50 μM peptide DMSO solution. Solubility was determined by: [(Area of PBS peak)/(Area of DMSO peak)]*50 uM.
experimental endpoint: Solubility (µM)
Output spec: scalar in µM, unitless text.

CC(=O)N1CCC[C@]12CC=CCCCC1(CCCC=CCCCOC(=O)N3CC[C@@](C(=O)N[C@@H](Cc4ccccc4Cl)C(=O)N[C@@H](Cc4csc5ccccc45)C(=O)N[C@@H](CO)C(N)=O)(C3)NC(=O)[C@H]([C@@H](C)O)NC(=O)[C@H](Cc3ccccc3)NC(=O)[C@H](CC(C)C)NC(=O)[C@H](CC(C)C)NC(=O)[C@H](CC(=O)O)NC(=O)[C@H](CC(=O)O)NC1=O)NC(=O)[C@H](CC1CCCCC1)NC(=O)[C@H](CC(=O)O)NC2=O (stereo partly drawn)    10
CC(=O)N1CCC[C@]12CC=CCCCC1(CCCC=CCCCOC(=O)N3CC[C@@](C(=O)N[C@@H](Cc4ccccc4Cl)C(=O)N[C@@H](Cc4csc5ccccc45)C(=O)N[C@H](CO)[C@@H](C)O)(C3)NC(=O)[C@H]([C@@H](C)O)NC(=O)[C@H](Cc3ccccc3)NC(=O)[C@H](C)NC(=O)[C@H](C)NC(=O)[C@H]([C@@H](C)O)NC(=O)[C@H](CC(=O)O)NC1=O)NC(=O)[C@H](CC1CCCCC1)NC(=O)[C@H](CC(=O)O)NC2=O (stereo partly drawn)    10

--- query ---
Give its Solubility value. Item: C=CC(=O)NC[C@H](NC(=O)[C@]1(C)CCCCCCC=CCCCC2(CCCC=CC[C@]3(CCCN3C(C)=O)C(=O)N[C@@H](CC(=O)O)C(=O)N[C@@H]([C@@H](C)CC)C(=O)N2)C(=O)N[C@@H](CC(=O)O)C(=O)N[C@@H](CC(=O)O)C(=O)N[C@@H](C)C(=O)N[C@@H](C)C(=O)N[C@@H](Cc2ccccc2)C(=O)N[C@@H](CCC(N)=O)C(=O)N1)C(=O)N[C@@H](Cc1csc2ccccc12)C(=O)N[C@@H](CCC(N)=O)C(N)=O (stereo partly drawn) [I-484] 45

###

protocol details: Solubility in PBS
Assay type: physicochemical
run conditions: Solubility (uM)
experimental endpoint: Solubility (µM)
Output spec: scalar in µM, unitless text.

CC[C@H](C)[C@@H]1NC(=O)[C@H](CC(=O)O)NC(=O)[C@]2(CC=CCCCC3(CCCC=CCCCCCC[C@@](C)(C(=O)N[C@@H](Cc4ccccc4)C(=O)N[C@@H](Cc4csc5ccccc45)C(=O)N[C@@H](CCC(N)=O)C(N)=O)NC(=O)[C@H](CCC(N)=O)NC(=O)[C@H](Cc4cccc(OC)c4)NC(=O)[C@H](C)NC(=O)[C@H](C)NC(=O)[C@H](CCC(=O)O)NC(=O)[C@H](CC(=O)O)NC3=O)NC1=O)CCCN2C(C)=O (some centres unmarked)    34

--- query ---
Give its Solubility value. Item: CC(=O)N1CCC[C@]12CC=CCCCC1(CCCC=CCCCCCC[C@@](C)(C(=O)N[C@@H](Cc3ccsc3)C(=O)N[C@@H](Cc3csc4ccccc34)C(=O)N[C@@H](CCC(N)=O)C(N)=O)NC(=O)[C@H](CC(N)=O)NC(=O)[C@H](Cc3ccccc3)NC(=O)[C@H](C)NC(=O)[C@H](C)NC(=O)[C@H](CN(CC(=O)O)CC(F)(F)F)NC(=O)[C@H](CC(=O)O)NC1=O)NC(=O)[C@H](CC(C)(C)C)NC(=O)[C@H](CC(=O)O)NC2=O (some centres unmarked) 42

// data source = patent US20240116985A1
